- testedSystem: T1, human eIF4E1a protein (human, UniProt P06730 1-217)
- T1 construct: human eukaryotic translation initiation factor 4E, isoform called eIF4E1a; Extinction coefficient used: 52,940 M^-1 cm^-1; also called heIF4E1a; eukaryotic initiation factor 4E
- T1 sequence (P06730 whole entry, canonical isoform): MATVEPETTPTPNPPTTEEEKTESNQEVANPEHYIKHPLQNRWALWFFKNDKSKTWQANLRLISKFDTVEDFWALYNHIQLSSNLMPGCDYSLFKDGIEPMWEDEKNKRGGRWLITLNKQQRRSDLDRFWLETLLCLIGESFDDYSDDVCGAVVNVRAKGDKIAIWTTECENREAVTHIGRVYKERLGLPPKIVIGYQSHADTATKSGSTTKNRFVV
- testDescription: ITC; non-reducing: 50 mM HEPES-KOH pH 7.2, 100 mM KCl, no TCEP, 20 °C; 20 µM eIF4E1a in the cell titrated with 200 µM h4E-T(1-68) WT; one-site model
- studyConditions: both partners purified
Bridge positions count the residues as written; N and C are the ends.
observationType: pKd
Here pKd is given on a logarithmic scale as minus log10 of the concentration in mol/L.

Query string: Form field: reported pKd of human 4E-T(1-68) wild type with the intramolecular disulphide bond Cys26-Cys50 (monomer SS) (domain or fragment, UniProt Q9NRA8 1-68, looked up, disulfide 26-50, human 4E-Transporter (4E-T), N-terminal fragment, residues 1-68; Same construct as m2, oxidised; The samples without TCEP may still hold some monomer SH and a small fraction of dimer; also called h4E-T(1-68) WT under non-reducing conditions; disulphide loop form) MDRRSMGETESGDAFLDLKKPPASKCPHRYTKEELLDIKELPHSKQRPSCLSEKYDSDGVWDPEKWHA
Result string: 6.10
